System: DU-145 prostate
METHOD_DESCRIPTION: NCI tumour cell line growth inhibition, 48 h
Outcome: true (1) for TGI of at least 30 µM; false (0) for anything lower.

Query: Can CCc1ccc(NC(=O)Nc2c[nH]c3ccccc23)cc1 be said to have TGI at or above 30 µM?
Result: true (1)

====

System: NCI-H226 lung
METHOD_DESCRIPTION: NCI tumour cell line growth inhibition, 48 h
Assign TGI to each entry below.

Worked examples follow.
Query: For the compound shown here, CC(=O)OCC(=O)[C@@]1(O)CC[C@H]2[C@@H]3CCC4=CC(=O)[C@H](C)C[C@]4(C)[C@H]3[C@@H](O)C[C@@]21C , give the reported TGI.
Result: > 100 µM

Query: Would you kindly share the measured TGI for COc1cc(OCc2ccc3nc(-c4ccccc4)c(N)nc3c2)cc(OC)c1OC ?
Result: 50.4 µM

Query: TGI lookup needed for Cc1ccc2c(c1)C1(C)OC(CC(N)C1O)O2 (configuration not stated) , thanks.
Result: > 100 µM

Query: Endpoint output: TGI of NS(=O)(=O)c1cc2c(cc1Cl)NC(C(=O)c1cc(=O)c3ccc(O)cc3o1)=NS2(=O)=O . Value?
Result: > 100 µM

Query: Tell me the measured TGI of CC1=CC(=O)c2c(O)cccc2C1=O , please.
Result: 24.6 µM

Query: Recorded TGI for Cc1nn2c(=O)c([N+](=O)[O-])c(/C=C/c3ccccc3)nc2s1 , please?
Result: 21.1 µM

# per-item lookup of TGI; items listed below
1. O=c1c2cc(S(=O)(=O)Nc3ccccc3Cl)ccc2ncn1NS(=O)(=O)c1ccc(Br)cc1
2. CC(=O)OC1c2ccccc2CC2(OC(C)=O)c3ccccc3C12 (configuration not stated)
3. CC1C2CC(CC(=O)N2)C1(C)C (configuration not stated)
4. O=C(O)[C@@H]1C2CC([C@@H]1C(=O)O)[C@H](N1C(=O)CCC1=O)[C@@H]2Br (some centres not stated)
5. CCOC(=O)c1c2c(n(CC(C)C)c1C)-c1nc[nH]c1C(=O)C2=O

Result:
["> 37.5 µM", "> 100 µM", "> 100 µM", "> 100 µM", "28.5 µM"]

Answer for every listed entry: what is its TGI? The entries follow.
1. CCCN1C(=O)/C(=c2\sc3n(c2=O)C2C(NN=3)N(CC)C(=O)N2CC)c2ccccc21 (configuration not stated)
2. C[C@]12CC[C@H]3[C@@H](CCC4=CC(=O)CC[C@@H]43)[C@@H]1CC[C@@H]2OC(=O)N(CCCl)N=O
3. O=c1cc(CNc2cc(F)cc(F)c2)c2ccc(I)cc2[nH]1
4. NCCCCNCCCN1CC1
5. O=S(=O)(c1ccc(NC(=S)NCc2cccnc2)cc1)N1CCCCC1
6. Cc1ccc2[nH]c(C(=O)NN3C(=O)CSC34CCCCC4C)c(-c3ccccc3)c2c1 (configuration not stated)

Result:
1. > 33 µM
2. 34.1 µM
3. > 100 µM
4. > 31.4 µM
5. > 100 µM
6. 34.2 µM

Give measured TGI for every item shown.
1. CC1=C(C(=O)OCc2ccccc2)C(c2ccc3c(c2)OCO3)n2c(nc3ccccc32)N1 (configuration not stated)
2. COc1cc(Br)c(OC)c2c(OC)cc(C)cc12

Result:
["> 100 µM", "> 100 µM"]

List reported TGI for each of these compounds:
1. CC1CC2OC(=O)C3CC(O)CC(=C23)[C@@]12C[C@@H](c1ccoc1)OC2=O (some centres not stated)
2. Cn1nc(Cc2ccc(Cl)cc2)n(N)c1=O
3. C=C(c1ccccc1)C1ON(C)CCc2cc(OC)c(OC)cc21 (configuration not stated)

Result:
1: > 100 µM; 2: > 100 µM; 3: > 100 µM
